assay: Odor detection threshold (ODT); settings: Table 13; in ppb
Label True when odt is at or above 70; anything below gets False.

Enquiry: Please tell me: is the compound CC(C)=CCCC(C)CCO (centres unmarked) at or over 70 in terms of odt?
Return: False

Enquiry: Please tell me: is the compound `CCOC(=O)CC1(C)OCCO1` at or over 70 in terms of odt?
Return: False

Enquiry: Please tell me: is the compound CC(C)=CCCC(C)CC=O (centres unmarked) at or over 70 in terms of odt?
Return: False

Enquiry: Please tell me: is the compound CCOC(=O)C(C)CC (centres unmarked) [Ethyl 2-methylbutyrate] at or over 70 in terms of odt?
Return: False

Enquiry: Please tell me: is the compound CCC(C)(O)CCCC(C)C (centres unmarked) [TETRAHYDROLINALOOL] at or over 70 in terms of odt?
Return: True

Enquiry: Please tell me: is the compound CCCCCCOC(C)=O [HEXYL ACETATE] at or over 70 in terms of odt?
Return: True

Enquiry: Please tell me: is the compound CC1=CC(C)C(C=O)CC1 (centres unmarked) at or over 70 in terms of odt?
Return: True

Enquiry: Please tell me: is the compound `CC(C)=CCCC(C)=CC=O` at or over 70 in terms of odt?
Return: False

Enquiry: Please tell me: is the compound CC/C=C\CCOC(C)=O [CIS-3-HEXENYL ACETATE] at or over 70 in terms of odt?
Return: True

Enquiry: Please tell me: is the compound `C=C(C)[C@H]1CC=C(C)CC1` at or over 70 in terms of odt?
Return: True

Enquiry: Please tell me: is the compound CCOC(=O)CC(C)=O [ETHYL ACETOACETATE] at or over 70 in terms of odt?
Return: False

Enquiry: Please tell me: is the compound C=CC(C)(O)CCC=C(C)CC (mixture of isomers) at or over 70 in terms of odt?
Return: True

Enquiry: Please tell me: is the compound C=CC(C)CCCC(C)(C)O (centres unmarked) [DIHYDROMYRCENOL] at or over 70 in terms of odt?
Return: True

Enquiry: Please tell me: is the compound C=CCOC(=O)CCC1CCCCC1 [ALLYL CYCLOHXYL PROPIONATE, ALLYL CYCLOHEXYL PROPIONATE] at or over 70 in terms of odt?
Return: False

Enquiry: Please tell me: is the compound CC1=CCC(C=CC(C)C(C)O)C1(C)C (stereo in doubt) at or over 70 in terms of odt?
Return: False

Enquiry: Please tell me: is the compound CC(CC=O)CCc1ccccc1 (centres unmarked) at or over 70 in terms of odt?
Return: False

Enquiry: Please tell me: is the compound CCC(C)C(=O)N(C)c1ccccc1 (centres unmarked) [GARDAMIDE] at or over 70 in terms of odt?
Return: False

Enquiry: Please tell me: is the compound CC(C)CC1CCCC(C)(O)C1 (centres unmarked) at or over 70 in terms of odt?
Return: True

Enquiry: Please tell me: is the compound CC1CC(C)(c2ccccc2)CO1 (centres unmarked) at or over 70 in terms of odt?
Return: True

----------
test: Odor detection threshold (ODT); conditions: Table 11; in ppb
Exercise: state measured odt for each of the compounds provided.
Form: value (number only, do not type unit).

The compound CC1=CC(C)C(C=O)CC1 (centres unmarked) [LIGUSTRAL] showed odt equal to 110.00

The compound CC/C=C\CCOC(C)=O [CIS-3-HEXENYL ACETATE] showed odt equal to 170.00

The compound CCOC(=O)CC1(C)OCCO1 [APPLINAL] showed odt equal to 55.00

The compound CCOC(=O)CC(C)=O [ETHYL ACETOACETATE] showed odt equal to 55.00

The compound C=C(C)[C@H]1CC=C(C)CC1 [d-LIMONINE, d-1-Methyl-4-isopropenyl-1-cyclohexene] showed odt equal to 430.00

The compound C=CCOC(=O)CCC1CCCCC1 [ALLYL CYCLOHXYL PROPIONATE, ALLYL CYCLOHEXYL PROPIONATE] showed odt equal to 81.00

The compound C=CC(C)CCCC(C)(C)O (centres unmarked) [DIHYDROMYRCENOL] showed odt equal to 819.00

The compound CC(CC=O)CCc1ccccc1 (centres unmarked) [MEFRANAL] showed odt equal to 17.00

The compound CC(C)CC1CCCC(C)(O)C1 (centres unmarked) [ROSSITOL] showed odt equal to 440.00

The compound CC(C)=CCCC(C)CC=O (centres unmarked) [CITRONELLAL] showed odt equal to 33.00

The compound CCOC(=O)C(C)CC (centres unmarked) [Ethyl 2-methylbutyrate] showed odt equal to 20.00

The compound CC1CC(C)(c2ccccc2)CO1 (centres unmarked) [RHUBAFURAN] showed odt equal to 440.00

The compound CC(C)=CCCC(C)CC#N (centres unmarked) [CITRONELLYL NITRILE] showed odt equal to 71.00

The compound CCC(C)C(=O)N(C)c1ccccc1 (centres unmarked) [GARDAMIDE] showed odt equal to 24.00

The compound CCCCCCOC(C)=O [HEXYL ACETATE] showed odt equal to 550.00

The compound CC(C)=CCCC(C)CCO (centres unmarked) [CITRONELLOL] showed odt equal to 29.00

The compound C=CC(C)(O)CCC=C(C)CC (mixture of isomers) [ETHYL LINALOOL] showed odt equal to 120.00

The compound CC1=CCC(C=CC(C)C(C)O)C1(C)C (stereo in doubt) [EBANOL] showed odt equal to 54.00

The compound CC(C)=CCCC(C)=CC=O [CITRAL] showed odt equal to 12.00

The compound CCC(C)(O)CCCC(C)C (centres unmarked) [TETRAHYDROLINALOOL] showed odt equal to 380.00
